Data origin: paper PMC5325082

Target: chicken α9α10 nAChR (wild type) (Gallus gallus, UniProt Q9I8C7+Q9PTS8)
Sequence (Q9I8C7 27-452): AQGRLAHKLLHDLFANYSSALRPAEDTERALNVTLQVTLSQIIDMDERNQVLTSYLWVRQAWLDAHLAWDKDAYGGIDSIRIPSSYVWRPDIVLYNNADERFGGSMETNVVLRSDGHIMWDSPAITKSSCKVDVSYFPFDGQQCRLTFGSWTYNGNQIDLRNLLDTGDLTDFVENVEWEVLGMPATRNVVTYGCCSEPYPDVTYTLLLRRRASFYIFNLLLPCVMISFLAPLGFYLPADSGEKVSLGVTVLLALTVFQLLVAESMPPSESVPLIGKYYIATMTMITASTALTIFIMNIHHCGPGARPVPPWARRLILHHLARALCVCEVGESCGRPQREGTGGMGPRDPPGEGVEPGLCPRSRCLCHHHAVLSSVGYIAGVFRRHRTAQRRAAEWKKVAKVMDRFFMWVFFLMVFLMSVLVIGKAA
Sequence (Q9PTS8 28-484): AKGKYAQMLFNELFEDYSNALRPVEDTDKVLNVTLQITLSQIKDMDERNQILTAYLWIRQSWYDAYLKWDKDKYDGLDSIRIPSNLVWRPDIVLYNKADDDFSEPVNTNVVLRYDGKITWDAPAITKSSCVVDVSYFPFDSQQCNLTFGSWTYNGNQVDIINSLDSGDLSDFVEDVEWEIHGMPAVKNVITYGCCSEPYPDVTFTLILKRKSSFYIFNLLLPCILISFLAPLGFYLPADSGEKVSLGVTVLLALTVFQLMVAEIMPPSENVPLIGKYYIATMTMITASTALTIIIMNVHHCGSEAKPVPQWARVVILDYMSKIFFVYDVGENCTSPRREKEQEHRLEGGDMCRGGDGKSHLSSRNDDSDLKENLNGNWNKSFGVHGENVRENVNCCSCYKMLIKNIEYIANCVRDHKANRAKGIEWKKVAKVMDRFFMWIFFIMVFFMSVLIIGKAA
Test: ACh-evoked currents, two-electrode voltage clamp in Xenopus laevis oocytes, wild-type receptor
Description: cDNAs encoding Gallus gallus (chick) or Rattus norvegicus (rat) α9 and α10 nAChR subunits were subcloned into a modified pGEMHE vector for expression studies in Xenopus laevis oocytes. […] The maintenance of Xenopus laevis and the preparation and cRNA injection of stage V and VI oocytes have been described in detail elsewhere ([Verbitsky et al., 2000]). […] Data were analyzed using Clampfit from the pClamp 6.1 software (Molecular Devices, Sunnyvale, CA). […]
Measured metric: pEC50
# log scale: pEC50 equals minus log10 of the concentration in mol/L

Exercise: Field: pEC50 (chicken α9α10 nAChR (wild type) (Gallus gallus, UniProt Q9I8C7+Q9PTS8)). Entry: `CC(=O)OCC[N+](C)(C)C`
Key: 4.80
